- target or test system: UniProt P35414
- assay name: Intracellular cAMP accumulation assay (APJ hcAMP, HTRF)
- Assay type: cell-based
- setup conditions: human APJ, intracellular cAMP accumulation; read-out: Human APJ cAMP EC50 Potency range

compound string	EC50
CCCCc1nc(=O)c(S(=O)(=O)c2ccc(C(=O)NC3CC3)cc2)c(O)n1-c1c(OC)cccc1OC	0.01 to 10 nM
CCCCc1nc(=O)c(S(=O)(=O)c2ccc(Br)cc2)c(O)n1[C@H](CC)c1ccccc1	10 to 100 nM
CCCCc1nc(=O)c(S(=O)(=O)c2ccc(-c3cc(F)ccc3F)cc2)c(O)n1-c1c(OC)cccc1OC	0.01 to 10 nM
CCCCc1nc(=O)c(S(=O)(=O)c2ccc(-c3ccccc3F)cc2)c(O)n1-c1c(OC)cccc1OC	0.01 to 10 nM
CCCCc1nc(=O)c(S(=O)(=O)c2ccc(-c3ccc(F)cc3)c(F)c2)c(O)n1-c1c(OC)cccc1OC	0.01 to 10 nM
CCCCc1nc(=O)c(S(=O)(=O)c2ccc(-c3cc(C)nc(C)c3)cc2)c(O)n1[C@@H](COC)c1ccccc1	10 to 100 nM
COC[C@@H](c1ccccc1)n1c(CC2CC2)nc(=O)c(S(=O)(=O)c2ccc(-c3ccc(F)nc3C)cc2)c1O	0.01 to 10 nM

---

- target or test system: UniProtKB P35414
- assay name: Intracellular cAMP accumulation assay (APJ hcAMP, HTRF)
- Format: cell-based
- setup conditions: human APJ, intracellular cAMP accumulation; read-out: Human APJ cAMP EC50 Potency range
pEC50: −log10 of the molar value.
assay endpoint: pEC50

compound	experimental value
CCCCc1nc(=O)c(S(=O)(=O)c2ccc(Br)cc2)c(O)n1[C@@H](COC)c1ccccc1	7.00 to 8.00
CCCCc1nc(=O)c(S(=O)(=O)c2ccc(-c3ccncc3F)cc2)c(O)n1-c1c(OC)cccc1OC	8.00 to 11.00
CCCCc1nc(=O)c(S(=O)(=O)c2ccc(-c3cccnc3C)cc2)c(O)n1[C@@H](COC)c1ccccc1	8.00 to 11.00
CCCCc1nc(=O)c(S(=O)(=O)c2ccc(-n3cc(Cl)ccc3=O)cc2)c(O)n1-c1c(CC)cccc1CC	8.00 to 11.00
COC[C@@H](c1ccccc1)n1c(CCC(C)C)nc(=O)c(S(=O)(=O)c2ccc(-c3cccnc3C)cc2)c1O	8.00 to 11.00
CCCCc1nc(=O)c(S(=O)(=O)c2ccc(-c3ccncc3C)cc2)c(O)n1C(C)c1cccnc1 (centres unmarked)	8.00 to 11.00
CCCCc1nc(=O)c(S(=O)(=O)c2ccc(-c3ccnc(NC(=O)C4CC4)c3)cc2)c(O)n1-c1c(CC)cccc1CC	8.00 to 11.00
CCCCc1nc(=O)c(S(=O)(=O)c2ccc(-c3cnc(F)c(Cl)c3)cc2)c(O)n1-c1c(OC)cccc1OC	8.00 to 11.00
CCCCc1nc(=O)c(S(=O)(=O)c2ccc(-c3ccc(F)nc3C)cc2)c(O)n1[C@@H](CC)c1cccc(Cl)c1	8.00 to 11.00
COc1cccc(OC)c1-n1c(COC(C)C)nc(=O)c(S(=O)(=O)c2ccc(-c3ccc(F)nc3)cc2)c1O	8.00 to 11.00
CCCCc1nc(=O)c(S(=O)(=O)c2ccc(-c3ccc(F)nc3)cc2)c(O)n1[C@H](C)c1cccc(C#N)c1	7.00 to 8.00
CCCCc1nc(=O)c(S(=O)(=O)c2ccc(-c3ccnc(F)c3C)cc2)c(O)n1C(c1ccccc1)C1CC1 (centres unmarked)	8.00 to 11.00
COC[C@@H](c1ccccc1)n1c(CC2CC2)nc(=O)c(S(=O)(=O)c2ccc(-c3ccc(F)nc3)cc2)c1O	8.00 to 11.00
CCCCc1nc(=O)c(S(=O)(=O)c2ccc(-c3ccc(C(=O)NC4CC4)cc3)cc2)c(O)n1-c1c(OC)cccc1OC	8.00 to 11.00
CCCCc1nc(=O)c(S(=O)(=O)c2ccc(-n3ccc(C)cc3=O)cc2)c(O)n1-c1c(OC)cccc1OC	8.00 to 11.00
CCCCc1nc(=O)c(S(=O)(=O)c2ccc(-c3cc(Cl)cc(Cl)c3)cc2)c(O)n1-c1c(OC)cccc1OC	8.00 to 11.00
CCCCc1nc(=O)c(S(=O)(=O)c2ccc(C(=O)NC)cc2)c(O)n1-c1c(OC)cccc1OC	8.00 to 11.00
CCCCc1nc(=O)c(S(=O)(=O)c2ccc(C)cc2)c(O)n1[C@H](C)c1ccccc1	7.00 to 8.00
CCOCc1nc(=O)c(S(=O)(=O)c2ccc(C3CC3)cc2)c(O)n1-c1c(CC)cccc1CC	8.00 to 11.00
CCCCc1nc(=O)c(S(=O)(=O)c2ccc(-c3ccc(F)nc3)cc2)c(O)n1[C@H](C)c1ccccc1	8.00 to 11.00
CCCCc1nc(=O)c(S(=O)(=O)c2ccc(-c3ccncc3C)cc2)c(O)n1[C@@H](C)c1ccccc1	8.00 to 11.00
COc1cccc(OC)c1-n1c(CCC(C)C)nc(=O)c(S(=O)(=O)c2ccc(-c3ccc(C#N)nc3)cc2)c1O	8.00 to 11.00
COc1cccc(OC)c1-n1c(CCC(C)C)nc(=O)c(S(=O)(=O)c2ccccc2-c2ccc(F)cc2)c1O	7.00 to 8.00
CCCCc1nc(=O)c(S(=O)(=O)c2ccc(Br)cc2)c(O)n1[C@H](C)c1cccc(C#N)c1	6.52 to 7.00
CCCCc1nc(=O)c(S(=O)(=O)c2ccc(Br)cc2)c(O)n1[C@H](C)c1ccccc1	7.00 to 8.00
CCCCc1nc(=O)c(S(=O)(=O)c2ccc(-c3ccc(F)nc3)cc2)c(O)n1[C@@H](CC)c1cccc(Cl)c1	8.00 to 11.00
COc1cccc(OC)c1-n1c(C2CCCC2)nc(=O)c(S(=O)(=O)c2ccc(C3CC3)cc2)c1O	8.00 to 11.00
CCCCc1nc(=O)c(S(=O)(=O)c2ccc(-c3ccnc(C)c3)cc2)c(O)n1[C@@H](COC)c1ccccc1	8.00 to 11.00
CCCCc1nc(=O)c(S(=O)(=O)c2ccc(-c3ccc(C)c(C)c3)cc2)c(O)n1-c1c(OC)cccc1OC	8.00 to 11.00

---

- target or test system: human APJ receptor (Homo sapiens (Human), UniProt P35414)
- Sequence (P35414 whole entry): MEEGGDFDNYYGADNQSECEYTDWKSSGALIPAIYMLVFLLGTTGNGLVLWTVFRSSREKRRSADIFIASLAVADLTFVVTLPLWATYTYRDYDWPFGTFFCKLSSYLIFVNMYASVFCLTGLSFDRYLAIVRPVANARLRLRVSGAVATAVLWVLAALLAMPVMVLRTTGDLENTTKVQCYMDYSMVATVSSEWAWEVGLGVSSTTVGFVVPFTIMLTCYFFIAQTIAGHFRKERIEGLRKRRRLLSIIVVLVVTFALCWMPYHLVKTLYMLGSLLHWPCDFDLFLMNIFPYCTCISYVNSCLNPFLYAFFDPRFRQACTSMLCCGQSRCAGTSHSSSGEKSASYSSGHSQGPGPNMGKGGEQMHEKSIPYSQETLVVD
- assay name: Intracellular cAMP accumulation assay (APJ hcAMP, HTRF)
- Assay type: cell-based
- setup conditions: human APJ, cAMP accumulation; read-out: Human APJ cAMP EC50 Potency range
pEC50: −log10 of the molar value.
Some compounds, each annotated with its measured pEC50.

compound string	pEC50
CCCCc1nc(=O)c(S(=O)(=O)c2ccc(-c3ccncc3C)cc2)c(O)n1[C@@H](CC)c1ccccc1	8.00 to 11.00
CCCCc1nc(=O)c(S(=O)(=O)c2ccc(-c3cncc(F)c3)cc2)c(O)n1[C@@H](CC)c1ccccc1	8.00 to 11.00
CCCCc1nc(=O)c(S(=O)(=O)c2ccc(-c3ccc(F)nc3C)cc2)c(O)n1[C@H](CC)c1cccc2c1OCO2	8.00 to 11.00
COC[C@@H](c1ccccc1)n1c(COC(C)C)nc(=O)c(S(=O)(=O)c2ccc(-c3ccc(F)nc3C)c(F)c2)c1O	8.00 to 11.00

---

Measured pEC50 accompanies every entry in the list below.
- target or test system: human APJ receptor (Homo sapiens (Human), UniProt P35414)
- assay name: Intracellular cAMP accumulation assay (APJ hcAMP, HTRF)
- Type: cell-based
- setup conditions: human APJ, cAMP accumulation; read-out: Human APJ cAMP EC50 Potency range
pEC50: −log10 of the molar value.

molecule	pEC50
CCCCc1nc(=O)c(S(=O)(=O)c2ccc(-c3ccc(F)nc3C)cc2)c(O)n1[C@@H](CC)c1ccc(C#N)cc1 [Example 267]	8.00 to 11.00
COC[C@@H](c1ccccc1)n1c(C2CCCO2)nc(=O)c(S(=O)(=O)c2ccc(-c3ccncc3C)cc2)c1O (single isomer, unassigned) [Example 352]	8.00 to 11.00
COC[C@@H](c1ccccc1)n1c(COC(C)C)nc(=O)c(S(=O)(=O)c2ccc(-c3ccnc(F)c3C)c(F)c2)c1O [Example 333]	8.00 to 11.00
COC[C@@H](c1ccccc1)n1c(C2CCCO2)nc(=O)c(S(=O)(=O)c2ccc(-c3ccnc(F)c3C)cc2)c1O (mixture of isomers) [Example 353]	8.00 to 11.00
CCOCc1nc(=O)c(S(=O)(=O)c2ccc(-c3ccncc3C)cc2)c(O)n1[C@@H](CC)c1ccccc1 [Example 306]	8.00 to 11.00
CCCCc1nc(=O)c(S(=O)(=O)c2ccc(-c3cncc(F)c3)cc2)c(O)n1[C@@H](CC)c1cccc2c1OCO2 [Example 258]	8.00 to 11.00
CCOCc1nc(=O)c(S(=O)(=O)c2ccc(-c3ccc(F)nc3C)c(F)c2)c(O)n1[C@@H](COC)c1ccccc1 [Example 339]	8.00 to 11.00
COC[C@@H](c1ccccc1)n1c(COC(C)C)nc(=O)c(S(=O)(=O)c2ccc(-c3cccnc3C)cc2)c1O [Example 328]	8.00 to 11.00
COC[C@@H](c1ccccc1)n1c(COC(C)C)nc(=O)c(S(=O)(=O)c2ccc(-c3ccncc3C)c(F)c2)c1O [Example 336]	8.00 to 11.00
CCOCc1nc(=O)c(S(=O)(=O)c2ccc(-c3cccnc3C)cc2)c(O)n1[C@H]1CCc2ccccc21 [Example 319]	8.00 to 11.00
COC[C@@H](c1ccccc1)n1c(COC(C)C)nc(=O)c(S(=O)(=O)c2ccc(F)c(F)c2)c1O [Example 337]	8.00 to 11.00
CCCCc1nc(=O)c(S(=O)(=O)c2ccc(-c3ccncc3C)cc2)c(O)n1[C@H]1CCCc2ccccc21 [Example 224]	8.00 to 11.00
CCCCc1nc(=O)c(S(=O)(=O)c2ccc(-c3ccncc3C)cc2)c(O)n1[C@@H](CC)c1ccc(C#N)cc1 [Example 265]	8.00 to 11.00
CCOCc1nc(=O)c(S(=O)(=O)c2ccc(Br)c(F)c2)c(O)n1C(COC)c1cccc(F)c1 (centres unmarked) [Example 298]	8.00 to 11.00

Cited source for all entries: patent US10508104B2
